assay: Cytotoxicity against human HuH7 cells assessed as release of lactate dehydrogenase; assay type: cell-based, Huh-7; settings: human, HuH7 cells
# IC90 listing for each entry below

// worked examples, IC90 included
[
  {
    "ITEM_SMILES": "C/C=C/C[C@@H](C)[C@@H](O)[C@H]1C(=O)N[C@@H](CC)C(=O)N(C)[C@H](SCCN(C)C)C(=O)N(C)[C@@H](CC(C)(C)O)C(=O)N[C@@H](C(C)C)C(=O)N(C)[C@@H](CC(C)C)C(=O)N[C@@H](C)C(=O)N[C@H](C)C(=O)N(C)[C@@H](CC(C)C)C(=O)N(C)[C@@H](CC(C)C)C(=O)N(C)[C@@H](C(C)C)C(=O)N1C",
    "IC90": "> 10 µM"
  },
  {
    "ITEM_SMILES": "C/C=C/C[C@@H](C)[C@@H](O)[C@H]1C(=O)N[C@@H](CC)C(=O)N(C)CC(=O)N(C)[C@@H](CC(C)C)C(=O)N[C@@H](C(C)C)C(=O)N(C)[C@@H](CC(C)C)C(=O)N[C@@H](C)C(=O)N[C@H](CCCN(CC)CC)C(=O)N(C)[C@@H](CC(C)C)C(=O)N(C)[C@@H](CC(C)C)C(=O)N(C)[C@@H](C(C)C)C(=O)N1C",
    "IC90": "8.91 µM"
  },
  {
    "ITEM_SMILES": "C/C=C/C[C@@H](C)[C@@H](O)[C@H]1C(=O)N[C@@H](CC)C(=O)N(C)CC(=O)N(C)[C@@H](CC(C)C)C(=O)N[C@@H](C(C)C)C(=O)N(C)[C@@H](CC(C)C)C(=O)N[C@@H](C)C(=O)N[C@H](CC#N)C(=O)N(C)[C@@H](CC(C)C)C(=O)N(C)[C@@H](CC(C)C)C(=O)N(C)[C@@H](C(C)C)C(=O)N1C",
    "IC90": "> 10 µM"
  },
  {
    "ITEM_SMILES": "C/C=C/C[C@@H](C)[C@@H](O)[C@H]1C(=O)N[C@@H](CC)C(=O)N(C)CC(=O)N(C)[C@@H](CC(C)C)C(=O)N[C@@H](C(C)C)C(=O)N(C)[C@@H](CC(C)C)C(=O)N[C@@H](C)C(=O)N[C@H](CCCN(C)C)C(=O)N(C)[C@@H](CC(C)C)C(=O)N(C)[C@@H](CC(C)C)C(=O)N(C)[C@@H](C(C)C)C(=O)N1C",
    "IC90": "8.73 µM"
  },
  {
    "ITEM_SMILES": "C/C=C/C[C@@H](C)[C@@H](O)[C@H]1C(=O)N[C@@H](CC)C(=O)N(C)CC(=O)N(C)[C@@H](CC(C)C)C(=O)N[C@@H](C(C)C)C(=O)N(C)[C@@H](CC(C)C)C(=O)N[C@@H](C)C(=O)N[C@H](CCCNC(=O)C(C)(C)C)C(=O)N(C)[C@@H](CC(C)C)C(=O)N(C)[C@@H](CC(C)C)C(=O)N(C)[C@@H](C(C)C)C(=O)N1C",
    "IC90": "> 10 µM"
  }
]

Request: // returns reported IC90 for input `C/C=C/C[C@@H](C)[C@@H](O)[C@H]1C(=O)N[C@@H](CC)C(=O)N(C)CC(=O)N(C)[C@@H](CC(C)C)C(=O)N[C@@H](C(C)C)C(=O)N(C)[C@@H](CC(C)C)C(=O)N[C@@H](C)C(=O)N[C@H](CCN)C(=O)N(C)[C@@H](CC(C)C)C(=O)N(C)[C@@H](CC(C)C)C(=O)N(C)[C@@H](C(C)C)C(=O)N1C`
Result: > 10 µM

* * *

test: Cytotoxicity against human HuH7 cells assessed as release of lactate dehydrogenase; type: cell-based, Huh-7; settings: human, HuH7 cells
In this section we review reported IC90 values for a set of compounds.

Sample answers from the record:
[
  {
    "ITEM_SMILES": "C/C=C/C[C@@H](C)[C@@H](O)[C@H]1C(=O)N[C@@H](CC)C(=O)N(C)CC(=O)N(C)[C@@H](CC(C)C)C(=O)N[C@@H](C(C)C)C(=O)N(C)[C@@H](CC(C)C)C(=O)N[C@@H](C)C(=O)N[C@H](CCC#N)C(=O)N(C)[C@@H](CC(C)C)C(=O)N(C)[C@@H](CC(C)C)C(=O)N(C)[C@@H](C(C)C)C(=O)N1C",
    "VALUE_REPORTED": "> 10 µM"
  },
  {
    "ITEM_SMILES": "C/C=C/C[C@@H](C)[C@@H](O)[C@H]1C(=O)N[C@@H](CC)C(=O)N(C)CC(=O)N(C)[C@@H](CC(C)C)C(=O)N[C@@H](C(C)C)C(=O)N(C)[C@@H](CC(C)C)C(=O)N[C@@H](C)C(=O)N[C@H](CCCN)C(=O)N(C)[C@@H](CC(C)C)C(=O)N(C)[C@@H](CC(C)C)C(=O)N(C)[C@@H](C(C)C)C(=O)N1C",
    "VALUE_REPORTED": "> 10 µM"
  }
]

# context switch: different compound, same IC90
Request: Would you mind telling me what IC90 value was observed for `C/C=C/C[C@@H](C)[C@@H](O)[C@H]1C(=O)N[C@@H](CC)C(=O)N(C)CC(=O)N(C)[C@@H](CC(C)C)C(=O)N[C@@H](C(C)C)C(=O)N(C)[C@@H](CC(C)C)C(=O)N[C@@H](C)C(=O)N[C@H](CNC(=O)OC(C)(C)C)C(=O)N(C)[C@@H](CC(C)C)C(=O)N(C)[C@@H](CC(C)C)C(=O)N(C)[C@@H](C(C)C)C(=O)N1C` ?
Result: > 10 µM

* * *

target: UniProt P23284; experiment: Binding affinity to cyclophilin B by ELISA
Sequence (P23284 whole entry): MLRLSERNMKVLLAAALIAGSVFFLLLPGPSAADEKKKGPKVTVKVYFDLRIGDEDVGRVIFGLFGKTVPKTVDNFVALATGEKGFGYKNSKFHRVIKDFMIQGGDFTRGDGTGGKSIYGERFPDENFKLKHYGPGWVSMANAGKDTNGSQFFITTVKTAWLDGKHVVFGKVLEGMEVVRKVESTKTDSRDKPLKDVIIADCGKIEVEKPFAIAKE
The following compounds are shown together with reported pIC50 values.
// scale note: pIC50 = -log10(conc_M); give the bare number

[
  {
    "ITEM_SMILES": "C/C=C/C[C@@H](C)[C@@H](O)[C@H]1C(=O)N[C@@H](CC)C(=O)N(C)CC(=O)N(C)[C@@H](CC(C)C)C(=O)N[C@@H](C(C)C)C(=O)N(C)[C@@H](CC(C)C)C(=O)N[C@@H](C)C(=O)N[C@H](CCCCN(C)C)C(=O)N(C)[C@@H](CC(C)C)C(=O)N(C)[C@@H](CC(C)C)C(=O)N(C)[C@@H](C(C)C)C(=O)N1C",
    "pIC50": 7.01
  }
]

Request: Lab note: need pIC50 for `C/C=C/C[C@@H](C)[C@@H](O)[C@H]1C(=O)N[C@@H](CC)C(=O)N(C)CC(=O)N(C)[C@@H](CC(C)C)C(=O)N[C@@H](C(C)C)C(=O)N(C)[C@@H](CC(C)C)C(=O)N[C@@H](C)C(=O)N[C@H](CC#N)C(=O)N(C)[C@@H](CC(C)C)C(=O)N(C)[C@@H](CC(C)C)C(=O)N(C)[C@@H](C(C)C)C(=O)N1C` on UniProt P23284, anyone have it?
Result: 8.02

* * *

experiment: Cytotoxicity against human HuH7 cells assessed as release of lactate dehydrogenase; format: cell-based, Huh-7; details: Homo sapiens, Huh-7
Overview of reported IC50 across a group of compounds:
Entry rule: numbers only, all in µM.

Known IC50 results, listed for orientation:
[
  {
    "ITEM_SMILES": "C/C=C/C[C@@H](C)[C@@H](O)[C@H]1C(=O)N[C@@H](CC)C(=O)N(C)CC(=O)N(C)[C@@H](CC(C)C)C(=O)N[C@@H](C(C)C)C(=O)N(C)[C@@H](CC(C)C)C(=O)N[C@@H](C)C(=O)N[C@H](CCNC(=O)C(C)(C)C)C(=O)N(C)[C@@H](CC(C)C)C(=O)N(C)[C@@H](CC(C)C)C(=O)N(C)[C@@H](C(C)C)C(=O)N1C",
    "VALUE_UNITS": "µM",
    "VALUE_REPORTED": 2.02
  },
  {
    "ITEM_SMILES": "C/C=C/C[C@@H](C)[C@@H](O)[C@H]1C(=O)N[C@@H](CC)C(=O)N(C)CC(=O)N(C)[C@@H](CC(C)C)C(=O)N[C@@H](C(C)C)C(=O)N(C)[C@@H](CC(C)C)C(=O)N[C@@H](C)C(=O)N[C@H](CN(C)C)C(=O)N(C)[C@@H](CC(C)C)C(=O)N(C)[C@@H](CC(C)C)C(=O)N(C)[C@@H](C(C)C)C(=O)N1C",
    "VALUE_UNITS": "µM",
    "VALUE_REPORTED": 2.05
  },
  {
    "ITEM_SMILES": "C/C=C/C[C@@H](C)[C@@H](O)[C@H]1C(=O)N[C@@H](CC)C(=O)N(C)CC(=O)N(C)[C@@H](CC(C)C)C(=O)N[C@@H](C(C)C)C(=O)N(C)[C@@H](CC(C)C)C(=O)N[C@@H](C)C(=O)N[C@H](CNC(=O)OC(C)(C)C)C(=O)N(C)[C@@H](CC(C)C)C(=O)N(C)[C@@H](CC(C)C)C(=O)N(C)[C@@H](C(C)C)C(=O)N1C",
    "VALUE_UNITS": "µM",
    "VALUE_REPORTED": 1.72
  },
  {
    "ITEM_SMILES": "C/C=C/C[C@@H](C)[C@@H](O)[C@H]1C(=O)N[C@@H](CC)C(=O)N(C)CC(=O)N(C)[C@@H](CC(C)C)C(=O)N[C@@H](C(C)C)C(=O)N(C)[C@@H](CC(C)C)C(=O)N[C@@H](C)C(=O)N[C@H](CCCN(C)C)C(=O)N(C)[C@@H](CC(C)C)C(=O)N(C)[C@@H](CC(C)C)C(=O)N(C)[C@@H](C(C)C)C(=O)N1C",
    "VALUE_UNITS": "µM",
    "VALUE_REPORTED": 2.15
  }
]

Request: Using the record for `C/C=C/C[C@@H](C)[C@@H](O)[C@H]1C(=O)N[C@@H](CC)C(=O)N(C)CC(=O)N(C)[C@@H](CC(C)C)C(=O)N[C@@H](C(C)C)C(=O)N(C)[C@@H](CC(C)C)C(=O)N[C@@H](C)C(=O)N[C@H](CCCCN(CC)CC)C(=O)N(C)[C@@H](CC(C)C)C(=O)N(C)[C@@H](CC(C)C)C(=O)N(C)[C@@H](C(C)C)C(=O)N1C` , report its IC50.
Result: 2.24
